Catalogue of log10 EC50 readings, one per entry.
- tested-target: CLK3 kinase (Homo sapiens)
- Sequence (P49761 whole entry): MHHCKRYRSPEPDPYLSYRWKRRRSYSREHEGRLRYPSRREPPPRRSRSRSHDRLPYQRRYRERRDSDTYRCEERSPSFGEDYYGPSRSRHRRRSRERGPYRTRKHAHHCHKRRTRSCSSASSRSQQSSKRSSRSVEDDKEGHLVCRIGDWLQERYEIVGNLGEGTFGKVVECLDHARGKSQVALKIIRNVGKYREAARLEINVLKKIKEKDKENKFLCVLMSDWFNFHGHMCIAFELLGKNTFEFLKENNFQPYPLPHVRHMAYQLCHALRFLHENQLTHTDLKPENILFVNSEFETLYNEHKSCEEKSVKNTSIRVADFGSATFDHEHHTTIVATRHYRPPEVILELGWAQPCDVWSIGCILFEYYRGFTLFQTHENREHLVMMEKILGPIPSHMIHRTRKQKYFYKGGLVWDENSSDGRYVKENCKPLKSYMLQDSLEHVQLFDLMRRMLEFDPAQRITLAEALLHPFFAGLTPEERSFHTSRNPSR
- procedure-text: CLK3 kinase activity assay (Z-lyte FRET);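 note: kinase activity read as coumarin/fluorescein emission ratio by FRET, unphosphorylated peptide as 0% and phosphorylated peptide as 100% control, values from non-linear regression of dose-response curves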
- applied-conditions: Z-lyte Ser/Thr 18 peptide, 156 μM ATP, 1 h at room temperature
readout-label: log10 EC50 (log10 of the value in nM)

1. Nc1cncc(-c2ccc3[nH]nc(-c4nc5c(-c6ccccc6F)cncc5[nH]4)c3n2)c1; 1.08
2. Oc1cncc(-c2ccc3[nH]nc(-c4nc5c(-c6cccc(F)c6)cncc5[nH]4)c3n2)c1; 1.87
3. O=C(CC1CCNCC1)Nc1cncc(-c2ccc3[nH]nc(-c4nc5c(-c6ccsc6)nccc5[nH]4)c3n2)c1; 1.82
4. Cc1ncc(-c2ccc3cnc(NC(=O)c4ccc(OC(C)C)cc4)cc3c2)n1C; 1.85
5. c1cncc(-c2cncc3[nH]c(-c4n[nH]c5ncc(-c6cncnc6)cc45)cc23)c1; 2.19
6. CN1CCN(c2ccc(C(=O)Nc3cc4cc(-c5cnn(C)c5)ccc4cn3)cn2)CC1 [compound 551]; 1.89
7. Fc1cccc(-c2cncc3[nH]c(-c4n[nH]cc4C#Cc4cncc(OC5CCNCC5)c4)nc23)c1; 2.17
8. CN1CCC2(CC1)CN(c1cc(C(=O)Nc3cc4cc(-c5cnn(C)c5CO)ccc4cn3)ccn1)C2; 1.64
9. c1cncc(-c2ccc3[nH]nc(-c4nc5c(-c6cccnc6)nccc5[nH]4)c3n2)c1; 2.02
10. Nc1cncc(-c2ccc3[nH]nc(-c4cc5c(-c6cccnc6)nccc5[nH]4)c3c2)c1; 1.26
11. CN1CCC(Oc2ncc(NC(=O)c3n[nH]c4cc(F)c(-c5cnn(C)c5)cc34)cc2F)CC1; 1.95
12. Nc1cncc(-c2ccc3[nH]nc(-c4nc5c(-c6ccccc6F)cccc5[nH]4)c3n2)c1; 2.32
13. Cc1nnc(C(=O)Nc2cc3cc(-c4cncn4C)ccc3cn2)s1; 2.25
14. CS(=O)(=O)NCc1cc(F)cc(-c2cncc3[nH]c(-c4n[nH]c5ccc(-c6cncnc6)nc45)cc23)c1; 1.76
15. Fc1ccccc1-c1nccc2[nH]c(-c3n[nH]c4cnc(-c5cn[nH]c5)cc34)cc12; 2.89
16. c1ncc(-c2ccc3[nH]nc(-c4cc5c(N6CCCCC6)cncc5[nH]4)c3c2)cc1CN1CCCC1; 1.81
17. O=C(Nc1ccc(C(=O)N2CCCC2)nc1)c1n[nH]c2ccc(-c3cncc(CN4CCCCC4)c3)cc12; 1.08

###

Catalogue of EC50 readings, one per entry.
- Test system: primary human mesenchymal stem cells (hMSCs)
- procedure-text: Chondrogenesis screening using primary human mesenchymal stem cells
- Format: cell-based
- applied-conditions: Homo sapiens, Mesenchymal stem cells, hMSC chondrogenesis; concentration required to induce 50% levels of chondrogenesis with TGF-β3 as positive control; read-out: Conc (nM) of 50% TGF-β3 activity
readout-label: EC50 (nM)

1) O=C(Nc1cncc(-c2cnc3[nH]nc(-c4nc5c(-c6cccc(F)c6)cncc5[nH]4)c3c2)c1)C1CC1; 10
2) Fc1ccccc1-c1nccc2[nH]c(-c3n[nH]c4cnc(-c5cn[nH]c5)cc34)cc12; 10
3) c1csc(-c2nccc3[nH]c(-c4n[nH]c5cnc(-c6cncc(CN7CCCCC7)c6)cc45)cc23)c1; 10
4) Cc1ccncc1-c1cnc2[nH]nc(-c3nc4c(-c5cc(F)cc(CNS(C)(=O)=O)c5)nccc4[nH]3)c2c1; 10
5) O=C(Nc1cncc(-c2ccc3[nH]nc(-c4nc5c(-c6ccc(Cl)s6)nccc5[nH]4)c3n2)c1)C1CCC1; 30
6) CN1CCN(c2nccc3[nH]c(-c4n[nH]c5cnc(-c6cncc(NC(=O)C7CCCCC7)c6)cc45)cc23)CC1; 10
7) Fc1cccc(-c2cncc3[nH]c(-c4n[nH]c5ccc(-c6cn[nH]c6)nc45)nc23)c1; 20.6
8) Fc1ccccc1-c1nccc2[nH]c(-c3n[nH]c4cnc(-c5cncc(CN6CCCC6)c5)cc34)cc12; 10
9) CC(C)C(=O)Nc1cncc(-c2ccc3[nH]nc(-c4nc5c(-c6ccccc6F)cncc5[nH]4)c3n2)c1; 10
10) Cn1cc(-c2cnc3[nH]nc(-c4nc5c(-c6cccc(F)c6)nccc5[nH]4)c3c2)cn1; 30

###

Catalogue of EC50 readings, one per entry.
- tested-target: CLK2 kinase (Homo sapiens)
- Sequence (P49760 whole entry): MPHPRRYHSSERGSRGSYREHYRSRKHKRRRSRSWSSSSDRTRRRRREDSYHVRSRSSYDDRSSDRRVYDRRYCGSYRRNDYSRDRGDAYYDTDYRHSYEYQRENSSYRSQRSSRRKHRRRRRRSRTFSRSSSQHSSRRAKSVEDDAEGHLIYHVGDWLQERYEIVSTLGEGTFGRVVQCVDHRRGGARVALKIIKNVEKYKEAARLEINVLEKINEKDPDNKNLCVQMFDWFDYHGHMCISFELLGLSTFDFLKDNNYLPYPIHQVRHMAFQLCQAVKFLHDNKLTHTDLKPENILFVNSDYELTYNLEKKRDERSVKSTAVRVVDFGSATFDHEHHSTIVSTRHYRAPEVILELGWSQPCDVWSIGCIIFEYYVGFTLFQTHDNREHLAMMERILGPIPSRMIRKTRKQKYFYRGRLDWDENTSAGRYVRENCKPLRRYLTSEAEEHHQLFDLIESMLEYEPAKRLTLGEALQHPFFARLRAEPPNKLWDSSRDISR
- procedure-text: CLK2 kinase activity assay (Z-lyte FRET)
- applied-conditions: Z-lyte Ser/Thr 6 peptide, 60 μM ATP, 1 h at room temperature
readout-label: EC50 (nM)

1) CO[C@H]1CC[C@H](C(=O)Nc2cc3cc(-c4cnn(C)c4CN4CCCCC4)ccc3cn2)CC1 [compound 569]; 8
2) CC(C)C(=O)Nc1cncc(-c2cc3c(-c4cc5c(-c6cccc(F)c6)cncc5[nH]4)n[nH]c3cn2)c1 [compound 307]; 13
3) O=C(NCc1cc(F)cc(F)c1)c1n[nH]c2ccc(-c3cncc(CN4CCCCC4)c3)cc12 [compound 77]; 6

###

- Tested on: primary human mesenchymal stem cells (hMSCs)
- procedure-text: Chondrogenesis screening using primary human mesenchymal stem cells
- Type: cell-based
- applied-conditions: Homo sapiens, Mesenchymal stem cells, hMSC chondrogenesis; concentration required to induce 50% levels of chondrogenesis with TGF-β3 as positive control; read-out: Conc (nM) of 50% TGF-β3 activity
Catalogue of EC50 readings, one per entry.
readout-label: EC50 (nM)

1. CC(C)(C)CC(=O)Nc1cncc(-c2cc3c(-c4cc5c(-c6ccccc6F)nccc5[nH]4)n[nH]c3cn2)c1; 30
2. Cc1ncc(-c2cnc3[nH]nc(-c4nc5c(-c6cccc(F)c6)nccc5[nH]4)c3c2)n1C; 100
3. CC(C)Nc1cncc(-c2cnc3[nH]nc(-c4nc5c(-c6ccoc6)nccc5[nH]4)c3c2)c1; 30
4. CC(C)Nc1cncc(-c2cnc3[nH]nc(-c4nc5c(-c6cccc(F)c6)cncc5[nH]4)c3c2)c1; 30

###

- tested-target: UniProtKB P49760
- procedure-text: CLK2 kinase activity assay (Z-lyte FRET)
- Assay type: biochemical
- applied-conditions: Z-lyte Ser/Thr 6 peptide, 60 μM ATP, 1 h at room temperature
Catalogue of log10(EC50) readings, one per entry.
readout-label: log10(EC50) (log10 of the value in nM)

1) CN1CCN(Cc2ccc(NC(=O)c3n[nH]c4ccc(-c5cccnc5)cc34)cn2)CC1 [compound 62]; 0.00
2) CN1CCN(c2cncc3[nH]c(-c4n[nH]c5ccc(-c6cncc(N)c6)nc45)nc23)CC1 [compound 215]; 0.70
3) CCCC(=O)Nc1cncc(-c2ccc3[nH]nc(-c4nc5c(-c6ccsc6)cncc5[nH]4)c3c2)c1 [compound 246]; 0.48
4) CN(C)Cc1cncc(-c2cc3c(-c4cc5c(-c6ccncc6)ccnc5[nH]4)n[nH]c3cn2)c1 [compound 400]; 1.08
5) CS(=O)(=O)NCc1cc(F)cc(-c2nccc3[nH]c(-c4n[nH]c5ncc(-c6cncc(OCc7ccccc7)c6)cc45)cc23)c1 [compound 537]; 1.11

###

- tested-target: CLK2 kinase (Homo sapiens)
- procedure-text: CLK2 kinase activity assay (Z-lyte FRET);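 note: FRET read-out as coumarin to fluorescein emission ratio, unphosphorylated peptide as 0% and phosphorylated peptide as 100% controls, duplicate reactions, non-linear regression fit of dose-response curves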
- applied-conditions: Z-lyte Ser/Thr 6 peptide, 60 μM ATP, 1 h at room temperature
pEC50: −log10 of the molar value.
Catalogue of pEC50 readings, one per entry.
readout-label: pEC50

1) CN1CCC(Oc2ccc(C(=O)Nc3cc4cc(-c5cnn(C)c5)ccc4cn3)cc2)CC1; 9.00
2) Cn1cc(-c2cc3c(-c4nc5c(-c6cccc(F)c6)nccc5[nH]4)n[nH]c3cn2)cn1; 8.00
3) CN(C)CCNc1cc(F)cc(-c2cccc3[nH]c(-c4n[nH]c5ccc(-c6cncnc6)nc45)cc23)c1; 8.30
4) Cc1n[nH]c2ccc(-c3cncc(OC[C@@H]4Cc5ccccc5CN4)n3)cc12; 7.57
5) Cc1ccncc1-c1cc2c(-c3cc4cnccc4[nH]3)n[nH]c2cn1; 8.52
6) CN(C)Cc1ccc(C(=O)Nc2cc3cc(-c4cnn(C)c4)ccc3cn2)cc1; 8.52
7) CN1CCN(c2nccc3[nH]c(-c4n[nH]cc4/C=C/c4cncc(F)c4)nc23)CC1; 9.00
8) Cn1ncc(-c2ccc3cnc(NC(=O)C4CCN(C(=O)c5ccccc5)CC4)cc3c2)c1CN1CCCCC1; 8.15
9) Fc1ccc(-c2cncc3[nH]c(-c4n[nH]c5ncc(-c6cncnc6)cc45)cc23)cc1; 8.22
10) c1cncc(-c2ccc3[nH]nc(-c4nc5c(-c6cccnc6)nccc5[nH]4)c3n2)c1; 9.00
11) CC(C)CC(=O)Nc1cncc(-c2ccc3[nH]nc(-c4nc5c(-c6cccs6)cncc5[nH]4)c3c2)c1; 8.05
12) CS(=O)(=O)NCc1cc(F)cc(-c2nccc3[nH]c(-c4n[nH]c5ncc(-c6cncc(NC(=O)C7CCC7)c6)cc45)cc23)c1; 8.30
13) CS(=O)(=O)NCc1cc(F)cc(-c2cncc3[nH]c(-c4n[nH]c5cnc(-c6cncc(NC(=O)C7CCC7)c6)cc45)cc23)c1; 8.10

src = patent US20230000842A1
